tested on: Human immunodeficiency virus 1; test: Antiviral activity against VSV-G pseudotyped HIV1 infected in human SupT1 cells at 100 uM after 48 hrs by luciferase reporter gene assay relative to control; format: functional; conditions: Human immunodeficiency virus 1, SUP-T1, 48 h
READOUT KIND: inhibition at 100 µM (%)
Respond numerically; units are % and should not be typed.

Worked set:
COMPOUND: Cc1c(O)c(O)c(O)c(C=O)c1-c1cc2c(C=O)c(C)c(O)c(O)c2o1
inhibition at 100 µM, %: 94.7
//
COMPOUND: O=C1O/C(=C\c2ccc(O)cc2)C(O)=C1c1ccc(O)c(O)c1
inhibition at 100 µM, %: 74.8
//
COMPOUND: CC1=C(C)[C@H]2[C@H](Cc3ccccc3)NC(=O)[C@]23OC(=O)/C=C/[C@@](C)(O)C[C@@H](C)C/C=C/[C@H]3[C@@H]1O
inhibition at 100 µM, %: 98.7

Exercise: Give the measured inhibition at 100 µM of "C/C(=C\CC/C(C)=C/C[C@]1(O)C(=O)c2c(O)cc(C)c3c(O)c(C)c(O)c(c23)C1=O)CC/C=C(\CO)CC[C@@H](O)C(C)(C)O" .
Solution: 98.6

Exercise: Also check "C/C(=C\CC/C(C)=C/C[C@]1(O)C(=O)c2c(O)cc(C)c3c(O)c(C)c(O)c(c23)C1=O)CC/C=C(/CC[C@@H](O)C(C)(C)O)C(=O)O"
Solution: 48.1

Exercise: Also check "COc1cc(/C=C2\OC(=O)C(c3ccc(O)cc3)=C2O)cc(OC)c1O"
Solution: 52.3

Exercise: Also check COC(=O)c1cc(O)cc(OC)c1C(=O)c1c(O)c(Cl)c(C)c(Cl)c1O [DIHYDROGEODIN]
Solution: 91.1

Exercise: Also check "C/C(=C\CC/C(C)=C/C[C@]1(O)C(=O)c2c(O)cc(C)c3c(O)c(C)c(O)c(c23)C1=O)CC/C=C(\CC[C@@H](O)C(C)(C)O)C(=O)O"
Solution: 96.8
